# tested_target: herpes thymidine kinase (Human herpesvirus 1, UniProt P0DTH5)
# Sequence (P0DTH5 whole entry): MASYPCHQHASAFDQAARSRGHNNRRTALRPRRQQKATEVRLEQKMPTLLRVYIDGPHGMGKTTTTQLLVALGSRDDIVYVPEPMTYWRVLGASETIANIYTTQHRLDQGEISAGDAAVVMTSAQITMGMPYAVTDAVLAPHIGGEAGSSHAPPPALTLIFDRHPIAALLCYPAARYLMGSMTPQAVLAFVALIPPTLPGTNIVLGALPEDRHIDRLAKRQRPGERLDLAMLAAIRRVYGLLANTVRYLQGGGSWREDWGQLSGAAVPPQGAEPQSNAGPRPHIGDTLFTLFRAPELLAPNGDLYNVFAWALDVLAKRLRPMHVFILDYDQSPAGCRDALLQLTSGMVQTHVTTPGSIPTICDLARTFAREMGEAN

[
  {
    "compound": "Nc1nc2c(ncn2C[C@H]2CCCC[C@H]2CO)c(=O)[nH]1 [L-758,340]",
    "IC50": "~100 nM"
  }
]
